- TGT: T1, recombinant human BCMA (ELISA antigen, construct not specified) (human, UniProt Q02223 1-54)
- T1 construct: Fc 1-51; Fc/His 1-51; Fc 4-48) was coated in these ELISAs; also called recombinant BCMA; recombinant protein
- T1 sequence: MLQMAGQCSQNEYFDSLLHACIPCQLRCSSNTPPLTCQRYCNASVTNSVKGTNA
- METHOD SUMMARY: ELISA on recombinant BCMA
// values below are reported EC50
Note: unit nM is implicit; provide only the numeric part.

Sample records with EC50:
binder="mutant antibody 5A6 LM8 (antibody, V domains shown, Light chain CDR mutant of 5A6 (IgG1); heavy chain as 5A6) VH: EVQLLESGGGLVQPGGSLRLSCAASGFTFSNYGVHWVRQAPGKGLEWVSYISYSGGTYYNPSLKSRFTISRDNSKNTLYLQMNSLRAEDTAVYYCARDSDDFGFDYWGQGTLVTVSS VL: QSVLTQPPSASGTPGQRVTISCQGDALRSYYVNWYQQLPGTAPKLLIYDHSKRPTGVPDRFSGSKSGTSASLAISGLRSEDEADYYCQSYDASTVVFGGGTKLTVLG" value_reported=0.068
binder="mutant antibody 5D5 LM1 (antibody, V domains shown, Light chain CDR mutant of 5D5 (IgG1); heavy chain as 5D5) VH: EVQLLESGGGLVQPGGSLRLSCAASGFTFSDYGLSWVRQAPGKGLEWVSLIDSSGSSTFYADSVKGRFTISRDNSKNTLYLQMNSLRAEDTAVYYCAKEHGLFDSWGQGTLVTVSS VL: EIVLTQSPGTLSLSPGERATLSCKASQDIDNDINWYQQKPGQAPRLLIYDASLRATGIPDRFSGSGSGTDFTLTISRLEPEDFAVYYCQQSLRTPITFGQGTKLEIKR" value_reported=0.0939
binder="mutant antibody 5A6 LM1 (antibody, V domains shown, Light chain CDR mutant of 5A6 (IgG1); heavy chain as 5A6) VH: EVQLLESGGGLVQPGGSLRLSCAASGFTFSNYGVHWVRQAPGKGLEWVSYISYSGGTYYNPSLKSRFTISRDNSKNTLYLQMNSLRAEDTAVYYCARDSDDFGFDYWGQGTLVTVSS VL: QSVLTQPPSASGTPGQRVTISCQGESLRSYYVNWYQQLPGTAPKLLIYDHSKRPTGVPDRFSGSKSGTSASLAISGLRSEDEADYYCQSYDSSTVVFGGGTKLTVLG" value_reported=0.0818
binder="mutant antibody 5A6 LM2 (antibody, V domains shown, Light chain CDR mutant of 5A6 (IgG1); heavy chain as 5A6) VH: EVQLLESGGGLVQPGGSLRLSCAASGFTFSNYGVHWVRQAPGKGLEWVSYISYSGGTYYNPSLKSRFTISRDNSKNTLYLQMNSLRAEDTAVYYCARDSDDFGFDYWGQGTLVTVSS VL: QSVLTQPPSASGTPGQRVTISCQGDALRSYYVNWYQQLPGTAPKLLIYDHSKRPTGVPDRFSGSKSGTSASLAISGLRSEDEADYYCQSYDSSTVVFGGGTKLTVLG" value_reported=0.0509

In: Quick one: EC50 of mutant antibody 5D5 LM5 (antibody, V domains shown, Light chain CDR mutant of 5D5 (IgG1); heavy chain as 5D5) VH: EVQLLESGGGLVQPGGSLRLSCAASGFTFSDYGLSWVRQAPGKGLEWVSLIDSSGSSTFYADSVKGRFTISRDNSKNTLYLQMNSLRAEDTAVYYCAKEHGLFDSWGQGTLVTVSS VL: EIVLTQSPGTLSLSPGERATLSCKASQDIDDEINWYQQKPGQAPRLLIYDASLRATGIPDRFSGSGSGTDFTLTISRLEPEDFAVYYCQQSLRTPITFGQGTKLEIKR ?
Out: 0.0763

Data provenance: patent US20210284749A1
